Hey, just so you know, these numbers are from ChEMBL document CHEMBL3351286.

# tested.on: Integrin alpha-V/beta-8 (Homo sapiens, UniProt P06756+P26012)
# Sequence (P06756 31-889 limits assumed): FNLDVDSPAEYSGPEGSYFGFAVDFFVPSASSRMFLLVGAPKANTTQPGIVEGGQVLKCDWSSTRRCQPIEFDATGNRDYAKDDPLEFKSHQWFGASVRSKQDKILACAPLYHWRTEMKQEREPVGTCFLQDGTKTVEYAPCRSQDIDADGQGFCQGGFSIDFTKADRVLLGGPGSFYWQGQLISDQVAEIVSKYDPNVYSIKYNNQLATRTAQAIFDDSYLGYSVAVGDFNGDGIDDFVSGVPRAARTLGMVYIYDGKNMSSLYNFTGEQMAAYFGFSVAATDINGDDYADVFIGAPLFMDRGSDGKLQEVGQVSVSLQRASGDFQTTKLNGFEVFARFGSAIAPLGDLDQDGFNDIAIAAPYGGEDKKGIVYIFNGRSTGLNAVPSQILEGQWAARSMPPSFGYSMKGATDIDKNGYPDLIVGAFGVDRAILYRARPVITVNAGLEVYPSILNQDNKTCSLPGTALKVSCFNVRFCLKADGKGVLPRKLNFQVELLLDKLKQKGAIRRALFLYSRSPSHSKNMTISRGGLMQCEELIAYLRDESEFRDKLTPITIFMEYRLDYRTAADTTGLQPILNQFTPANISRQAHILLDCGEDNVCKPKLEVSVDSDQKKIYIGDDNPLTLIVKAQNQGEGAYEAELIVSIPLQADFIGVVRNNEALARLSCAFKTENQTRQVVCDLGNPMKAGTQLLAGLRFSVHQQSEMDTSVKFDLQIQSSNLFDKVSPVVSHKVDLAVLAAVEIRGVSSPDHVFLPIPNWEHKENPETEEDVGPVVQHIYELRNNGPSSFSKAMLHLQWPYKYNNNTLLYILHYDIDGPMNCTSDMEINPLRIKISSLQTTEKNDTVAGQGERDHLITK
# Sequence (P06756 891-1048 limits assumed): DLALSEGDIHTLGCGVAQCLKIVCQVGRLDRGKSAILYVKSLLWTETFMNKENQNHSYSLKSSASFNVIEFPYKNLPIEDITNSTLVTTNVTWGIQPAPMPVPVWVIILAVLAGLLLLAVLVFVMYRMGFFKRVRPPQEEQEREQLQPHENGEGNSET
# Sequence (P26012 43-769 limits assumed): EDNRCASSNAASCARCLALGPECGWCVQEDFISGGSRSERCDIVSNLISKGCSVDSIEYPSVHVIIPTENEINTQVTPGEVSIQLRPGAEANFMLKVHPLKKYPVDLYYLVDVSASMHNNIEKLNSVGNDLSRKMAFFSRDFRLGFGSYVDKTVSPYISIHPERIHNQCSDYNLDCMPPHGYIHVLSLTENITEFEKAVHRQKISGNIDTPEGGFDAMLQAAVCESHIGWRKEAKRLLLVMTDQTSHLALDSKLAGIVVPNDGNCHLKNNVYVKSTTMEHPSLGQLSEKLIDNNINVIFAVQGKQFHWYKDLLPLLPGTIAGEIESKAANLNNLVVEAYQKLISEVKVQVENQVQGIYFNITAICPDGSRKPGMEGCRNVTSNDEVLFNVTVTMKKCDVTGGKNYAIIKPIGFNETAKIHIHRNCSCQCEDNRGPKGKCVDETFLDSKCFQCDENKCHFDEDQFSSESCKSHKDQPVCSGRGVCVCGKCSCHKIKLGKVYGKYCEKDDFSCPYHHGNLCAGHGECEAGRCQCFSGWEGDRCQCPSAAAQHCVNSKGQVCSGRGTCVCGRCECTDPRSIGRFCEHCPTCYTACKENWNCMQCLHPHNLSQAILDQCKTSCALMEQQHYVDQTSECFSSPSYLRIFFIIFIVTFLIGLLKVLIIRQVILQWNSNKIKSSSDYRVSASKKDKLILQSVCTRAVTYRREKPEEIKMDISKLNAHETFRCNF
# test.name: Antagonist activity at human recombinant alphavbeta8 integrin receptor expressed in HEK293 cells after 4 hrs using p-nitrophenyl phosphate by colorimetry
# Format: cell-based
Hi there, I'd appreciate the recorded pIC50 for every entry that follows.
Answers are plain numbers, as −log10 of the molar value.

>>> observed_result("O=C(O)C[C@H](NC(=O)CNC(=O)c1cc(O)cc(NC2=NCC(O)CN2)c1)c1cc(Cl)cc(Br)c1O (some centres not stated)")
8.77

Please examine the following record next.
Hi! What's the reported pIC50 for O=C(O)C[C@H](NC(=O)CNC(=O)c1cncc(N=C2NCC(O)CN2)c1)c1cc(Cl)cc(Br)c1O (some centres not stated) on Integrin alpha-V/beta-8 (Homo sapiens, UniProt P06756+P26012)?
9.19
